Values compiled from the supplement of paper PMC10567573.

Give measured protein stability index for each item. Keep answers brief.
B1: MIA2 (parent)
chain: NSISSDKEATVPCTEILTEKKDTI

Variants of: B1
Test: protein stability index of a GFP-peptide fusion (GPS, HEK-293T) (PSI 1-6); higher = more stable;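 also: lentivirally expressed fusions sorted by FACS into six bins by GFP to DsRed ratio, PSI derived from sequencing read proportions per bin multiplied by bin number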
Settings: c terminus: a fixed tail appended

Reported protein stability index ( E15W ) = 4.13

GET /value?item= D6G &field=protein stability index returns 5.28

The variant K7Y showed protein stability index equal to 5.17

Query T23N yields protein stability index of 5.24

// protein stability index lookup, variant = P12H , result: 5

Looking up I16E , I see its protein stability index listed as 5.62

Notebook: D6C , protein stability index read as 4.52

Entry C13Q , protein stability index reported as 5.57

Per the record, S5P has protein stability index of 5.59

Recorded protein stability index (variant E8S ): 5.46

Field protein stability index (entry I24V ) reads 5.63
